Quick list: Tissue distribution, Salivary glands per entry.
Tested on: PANC-1 tumor model
Assay: Tissue distribution in nude mice (PANC-1 tumor model)
Format: in vivo, BALB/c nu/nu mice
Conditions: nude mice (PANC-1 tumor model), 1 h after injection
MEASURED_QUANTITY: Tissue distribution, Salivary glands (%ID/g)

                                   compound                     measured_quantity  value_reported
0  COc1ccc(C[C@](C)(N)C(=O)O)cc1[211At] [^211At-AAMT-O-Me-L]  Tissue distribution, Salivary glands            0.58
1  CCCOc1ccc(C[C@](C)(N)C(=O)O)cc1[211At] [^211At-AAMT-O-Pr-L]  Tissue distribution, Salivary glands           20.98
2  COc1ccc(C[C@@](C)(N)C(=O)O)cc1[211At] [^211At-AAMT-O-Me-D]  Tissue distribution, Salivary glands            0.30
3  CCOc1ccc(C[C@](C)(N)C(=O)O)cc1[211At] [^211At-AAMT-O-Et-L]  Tissue distribution, Salivary glands           13.69

---

Tissue distribution, Bone values, listed per item
Assay: Tissue distribution in ICR mice (normal animals)
Type: in vivo
Settings: 1 h after injection
MEASURED_QUANTITY: Tissue distribution, Bone (%ID/g)

>>> df
                                   molecule  value_reported
0  COc1ccc(C[C@](C)(N)C(=O)O)cc1[211At] [^211At-AAMT-O-Me-L]            1.33
1  CCOc1ccc(C[C@](C)(N)C(=O)O)cc1[211At] [^211At-AAMT-O-Et-L]            0.71
2  COc1ccc(C[C@@](C)(N)C(=O)O)cc1[211At] [^211At-AAMT-O-Me-D]            0.93
3  CCCOc1ccc(C[C@](C)(N)C(=O)O)cc1[211At] [^211At-AAMT-O-Pr-L]            1.79

---

Consider the following molecules and their measured Tissue distribution, Liver readings.
Test: Tissue distribution in ICR mice (normal animals)
Assay type: in vivo
Settings: 3 h after injection
MEASURED_QUANTITY: Tissue distribution, Liver (%ID/g)

In [3]: df
Out[3]:
                                   molecule  value_reported
0  CCOc1ccc(C[C@](C)(N)C(=O)O)cc1[211At] [^211At-AAMT-O-Et-L]            1.06
1  CCCOc1ccc(C[C@](C)(N)C(=O)O)cc1[211At] [^211At-AAMT-O-Pr-L]            0.82
2  COc1ccc(C[C@@](C)(N)C(=O)O)cc1[211At] [^211At-AAMT-O-Me-D]            1.34
3  COc1ccc(C[C@](C)(N)C(=O)O)cc1[211At] [^211At-AAMT-O-Me-L]            2.57

---

Assay: Tissue distribution in ICR mice (normal animals)
Type: in vivo
Conditions: 1 h after injection
MEASURED_QUANTITY: Tissue distribution, Bladder (%ID/g)

                                   compound  value_reported
0  COc1ccc(C[C@](C)(N)C(=O)O)cc1[211At] [^211At-AAMT-O-Me-L]            7.10
1  CCCOc1ccc(C[C@](C)(N)C(=O)O)cc1[211At] [^211At-AAMT-O-Pr-L]           20.82
2  COc1ccc(C[C@@](C)(N)C(=O)O)cc1[211At] [^211At-AAMT-O-Me-D]           10.62
3  CCOc1ccc(C[C@](C)(N)C(=O)O)cc1[211At] [^211At-AAMT-O-Et-L]           53.22

---

Test: Tissue distribution in ICR mice (normal animals)
Type: in vivo
Conditions: 1 h after injection
MEASURED_QUANTITY: Tissue distribution, Thymus (%ID/g)

>>> print(df.to_string())
                                   molecule      u  value_reported
0  COc1ccc(C[C@@](C)(N)C(=O)O)cc1[211At] [^211At-AAMT-O-Me-D]  %ID/g            1.89
1  COc1ccc(C[C@](C)(N)C(=O)O)cc1[211At] [^211At-AAMT-O-Me-L]  %ID/g            2.03
2  CCCOc1ccc(C[C@](C)(N)C(=O)O)cc1[211At] [^211At-AAMT-O-Pr-L]  %ID/g            2.03
3  CCOc1ccc(C[C@](C)(N)C(=O)O)cc1[211At] [^211At-AAMT-O-Et-L]  %ID/g            1.14

---

# maps each entry to its Tissue distribution, Liver
Assay: Tissue distribution in ICR mice (normal animals)
Assay type: in vivo
Conditions: 1 h after injection
From the text: ICR mice (male, 5 weeks old) were purchased from Japan SLC (Shizuoka, Japan) and acclimated for one week prior to use. The doses in the distribution experiments were as follows: ^211At-AAMT-O-Me-L (0.407 ± 0.005 MBq/mouse, 31.64 ± 0.76 g, n = 6), ^211At-AAMT-O-Me-D (0.351 ± 0.004 MBq/mouse, 31.44 ± 0.94 g, n = 6), ^211At-AAMT-O-Et-L (0.685 ± 0.010 MBq/mouse, 24.14 ± 3.31 g, n = 6), ^211At-AAMT-O-Pr-L (1.09 ± 0.06 MBq/mouse, 26.33 ± 0.39 g, n = 6)
MEASURED_QUANTITY: Tissue distribution, Liver (%ID/g)

>>> df
                                   molecule           measured_quantity      u  value_reported
0  COc1ccc(C[C@@](C)(N)C(=O)O)cc1[211At] [^211At-AAMT-O-Me-D]  Tissue distribution, Liver  %ID/g            0.58
1  COc1ccc(C[C@](C)(N)C(=O)O)cc1[211At] [^211At-AAMT-O-Me-L]  Tissue distribution, Liver  %ID/g            1.11
2  CCOc1ccc(C[C@](C)(N)C(=O)O)cc1[211At] [^211At-AAMT-O-Et-L]  Tissue distribution, Liver  %ID/g            1.41
3  CCCOc1ccc(C[C@](C)(N)C(=O)O)cc1[211At] [^211At-AAMT-O-Pr-L]  Tissue distribution, Liver  %ID/g            1.18

---

Reported Tissue distribution, Lung values are given for each entry in this list.
Test: Tissue distribution in ICR mice (normal animals)
Type: in vivo
Details: 3 h after injection
MEASURED_QUANTITY: Tissue distribution, Lung

>>> df
                                   compound     value_reported
0  CCCOc1ccc(C[C@](C)(N)C(=O)O)cc1[211At] [^211At-AAMT-O-Pr-L]  5.09 ± 0.43 %ID/g
1  CCOc1ccc(C[C@](C)(N)C(=O)O)cc1[211At] [^211At-AAMT-O-Et-L]  4.93 ± 1.95 %ID/g
2  COc1ccc(C[C@@](C)(N)C(=O)O)cc1[211At] [^211At-AAMT-O-Me-D]  0.69 ± 0.28 %ID/g
3  COc1ccc(C[C@](C)(N)C(=O)O)cc1[211At] [^211At-AAMT-O-Me-L]  1.34 ± 0.32 %ID/g

---

Test: Tissue distribution in ICR mice (normal animals)
Format: in vivo
Conditions: 3 h after injection
Listing of entries alongside the reported Tissue distribution, Brain.
MEASURED_QUANTITY: Tissue distribution, Brain (%ID/g)

>>> df
                                   compound           measured_quantity  value_reported
0  CCCOc1ccc(C[C@](C)(N)C(=O)O)cc1[211At] [^211At-AAMT-O-Pr-L]  Tissue distribution, Brain            0.16
1  CCOc1ccc(C[C@](C)(N)C(=O)O)cc1[211At] [^211At-AAMT-O-Et-L]  Tissue distribution, Brain            0.13
2  COc1ccc(C[C@@](C)(N)C(=O)O)cc1[211At] [^211At-AAMT-O-Me-D]  Tissue distribution, Brain            0.04
3  COc1ccc(C[C@](C)(N)C(=O)O)cc1[211At] [^211At-AAMT-O-Me-L]  Tissue distribution, Brain            0.10

---

Listed here are compounds together with their documented Tissue distribution, Pancreas.
Assay: Tissue distribution in ICR mice (normal animals)
Type: in vivo
Settings: 1 h after injection
Description: ICR mice (male, 5 weeks old) were purchased from Japan SLC (Shizuoka, Japan) and acclimated for one week prior to use. The doses in the distribution experiments were as follows: ^211At-AAMT-O-Me-L (0.407 ± 0.005 MBq/mouse, 31.64 ± 0.76 g, n = 6), ^211At-AAMT-O-Me-D (0.351 ± 0.004 MBq/mouse, 31.44 ± 0.94 g, n = 6), ^211At-AAMT-O-Et-L (0.685 ± 0.010 MBq/mouse, 24.14 ± 3.31 g, n = 6), ^211At-AAMT-O-Pr-L (1.09 ± 0.06 MBq/mouse, 26.33 ± 0.39 g, n = 6)
MEASURED_QUANTITY: Tissue distribution, Pancreas (%ID/g)

                                   compound              measured_quantity  value_reported
0  CCOc1ccc(C[C@](C)(N)C(=O)O)cc1[211At] [^211At-AAMT-O-Et-L]  Tissue distribution, Pancreas            7.31
1  CCCOc1ccc(C[C@](C)(N)C(=O)O)cc1[211At] [^211At-AAMT-O-Pr-L]  Tissue distribution, Pancreas            2.55
2  COc1ccc(C[C@](C)(N)C(=O)O)cc1[211At] [^211At-AAMT-O-Me-L]  Tissue distribution, Pancreas            1.52
3  COc1ccc(C[C@@](C)(N)C(=O)O)cc1[211At] [^211At-AAMT-O-Me-D]  Tissue distribution, Pancreas            2.38
